The reported measurements were obtained from patent US20180258181A1.

Entries and their EC50 values follow.
- experimental-target: T1, mesothelin on NCI-H226 cells (UniProt Q13421 296-598)
- T1 construct: whole, on cells; In the immunoblots the protein stood in a denatured cell extract
- T1 sequence (Q13421 other isoform, or with tags, fused parts or gaps limits assumed): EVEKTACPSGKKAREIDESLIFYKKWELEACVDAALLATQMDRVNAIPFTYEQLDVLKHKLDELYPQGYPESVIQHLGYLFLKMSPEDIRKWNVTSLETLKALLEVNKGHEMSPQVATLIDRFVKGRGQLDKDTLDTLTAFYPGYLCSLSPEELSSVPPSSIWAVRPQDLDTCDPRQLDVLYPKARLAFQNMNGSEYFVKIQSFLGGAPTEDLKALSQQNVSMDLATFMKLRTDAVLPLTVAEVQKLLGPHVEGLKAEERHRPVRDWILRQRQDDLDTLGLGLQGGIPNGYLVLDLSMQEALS
- method: FACS titration, IgG on NCI-H226 cells
endpoint: EC50 (nM)

binder	observed-value
MOR06657 IgG (antibody, V domains shown) VH: QVQLVQSGAEVKKPGSSVKVSCKASGGTFSSYYFSWVRQAPGQGLEWMGGIIPKFGSANYAQKFQGRVTITADESTSTAYMELSSLRSEDTAVYYCARRTSMDYWGQGTLVTVSS VL: DIALTQPASVSGSPGQSITISCTGTSSDVGGYNYVSWYQQHPGKAPKLMIYSVSKRPSGVSNRFSGSKSGNTASLTISGLQAEDEADYYCATWDHSQMGKVFGGGTKLTVLG	0.14
MOR06631 IgG (antibody, V domains shown) VH: QVQLVQSGAEVKKPGESLKISCKGSGYSFTNYWIGWVRQMPGKGLEWMGFIWPVDSWTQYSPSFQGQVTISADKSISTAYLQWSSLKASDTAMYYCARYGHGMYGGALDVWGQGTLVTVSS VL: DIVLTQSPATLSLSPGERATLSCRASQSVRSSRLAWYQQKPGQAPRLLIYGASKRATGVPARFSGSGSGTDFTLTISSLEPEDFATYYCQQYYDFPPTFGQGTKVEIKR	2.02
MOR06638 IgG (antibody, V domains shown) VH: QVQLVQSGAEVKKPGASVKVSCKASGYTFTGNYINWVRQAPGQGLEWMGIINPHGGDTKYAQKFQGRVTMTRDTSISTAYMELSSLRSEDTAVYYCARWHHGTWIFDYWGQGTLVTVSS VL: DIVLTQPPSVSGAPGQRVTISCSGSSSNIGSNYVSWYQQLPGTAPKLLIYNDNQRPSGVPDRFSGSKSGTSASLAITGLQSEDEADYYCSSWDRADGSYVFGGGTKLTVLG	0.19
